Values from paper PMC11855827

System: C. elegans
Experiment: microbe, parasite or virus in culture
Conditions: Caenorhabditis elegans, 0 h, read-out: Percentage of motility inhibition 0 h, Table S2, C. elegans SS assay, 110 μM, 0 h, averages of 4 data points
Kindly return 1 if reported inhibition at 110 µM is no lower than 10%; return 0 if it is lower.

[
  {
    "Molecule": "CC(C)c1nc(CN(C)C(=O)N[C@H](C(=O)N[C@@H](Cc2ccccc2)C[C@H](O)[C@H](Cc2ccccc2)NC(=O)OCc2cncs2)C(C)C)cs1",
    "Group": 0
  },
  {
    "Molecule": "O=C(O)c1ccccc1C(=O)Nc1ccc(S(=O)(=O)Nc2nccs2)cc1",
    "Group": 1
  },
  {
    "Molecule": "N#CC(c1ccc(Cl)cc1)c1c(Cl)cc(-n2ncc(=O)[nH]c2=O)cc1Cl (centres unmarked)",
    "Group": 1
  }
]

Prompt: Could you verify whether the entry COc1cc(O)c2c(=O)c(O)c(-c3ccc(O)c(O)c3)oc2c1 shows inhibition at 110 µM of no less than 10%?
Response: 1

Prompt: Could you verify whether the entry COc1cc2c(cc1O)C[C@H]1c3c(cc(O)c(OC)c3-2)CCN1C shows inhibition at 110 µM of no less than 10%?
Response: 0

Prompt: Could you verify whether the entry COC(=O)C1=CO[C@@H](O[C@@H]2O[C@H](CO)[C@@H](O)[C@H](O)[C@H]2O)[C@@H]2[C@H](C)O[C@@H](O)C[C@H]12 [Morroniside] shows inhibition at 110 µM of no less than 10%?
Response: 0

Prompt: Could you verify whether the entry CN1CCc2cc3c(c4c2C1Cc1ccccc1-4)OCO3 (centres unmarked) shows inhibition at 110 µM of no less than 10%?
Response: 0

* * *

System: C. elegans
Assay: microbe, parasite or virus in culture
Details: Caenorhabditis elegans, 0 h, read-out: Percentage of motility inhibition 0 h, Table S2, C. elegans SS assay, 110 μM, 0 h, averages of 4 data points
Listed here: items and their measured inhibition at 110 µM.
Note: a bare number is incomplete; add the unit.

Worked cases, inhibition at 110 µM given:
[
  {
    "Molecule": "CC(C)(CO)[C@@H](O)C(=O)NCCC(=O)O",
    "inhibition at 110 µM": "9%"
  },
  {
    "Molecule": "COc1cc(O)c2c(=O)cc(-c3ccc(O)c(OC)c3)oc2c1 [Velutin]",
    "inhibition at 110 µM": "11%"
  },
  {
    "Molecule": "COc1cc(C=O)ccc1O",
    "inhibition at 110 µM": "24%"
  },
  {
    "Molecule": "C=C1C[C@@]23CC[C@H]4[C@@](C)(CCC[C@@]4(C)C(=O)O)[C@@H]2CC[C@@H]1C3",
    "inhibition at 110 µM": "0%"
  }
]

// next item, inhibition at 110 µM requested
Prompt: # lookup: inhibition at 110 µM of Nc1[nH]c(=O)ncc1F
Response: 23%

* * *

Tested on: H. contortus susceptible strain
Assay: Egg hatch inhibition (EHI), ovicidal effect
Set-up: species or system Haemonchus contortus
Settings: Haemonchus contortus, egg hatching, susceptible H. contortus, nine replicates; read-out: Ovicidal Effect EC50 (μM) H. c
Measured parameter: EC50 (µM)
Write the number in µM without appending the unit.

Worked cases, EC50 given:
[
  {
    "Molecule": "O=C(/C=C/c1ccccc1)c1ccccc1",
    "Uom": "µM",
    "EC50": 3.7
  },
  {
    "Molecule": "CCc1nn(C)c(C(=O)NCc2ccc(Oc3ccc(C)cc3)cc2)c1Cl",
    "Uom": "µM",
    "EC50": 1.5
  }
]

Prompt: # lookup: EC50 of c1ccc2[nH]c(-c3cscn3)nc2c1 [Thiabendazole, reference compound]
Response: 0.28

Prompt: # lookup: EC50 of CCCCCCCCN=c1ccn(CCCCCCCCCCn2ccc(=NCCCCCCCC)cc2)cc1 [Octenidine, reference compound]
Response: 2.1
